From: ChEMBL document CHEMBL5724796

# measurement.target: Fibroblast growth factor receptor 2 (Homo sapiens)
# test.context: Compound concentration 20.0 uM
# Description: Thermal Shift Assay. Domain: start/stop: T457-E768
Residues, ends and D or L forms follow the SMILES beside them.
Field: label. Allowed values: Fulfilled (ΔTm < 0.3 °C) or Not fulfilled (ΔTm >= 0.3 °C).

// known answers, use as guide
{"columns": ["molecule", "measurement.target", "label.class"],
 "data": [
  ["N#Cc1cccnc1N1CCN(C(=O)c2cccc(Cc3n[nH]c(=O)c4ccccc34)c2)CC1", "Fibroblast growth factor receptor 2 (Homo sapiens)", "Fulfilled"],
  ["COc1cccc(OC)c1S(=O)(=O)Nc1noc2cc(Cn3cccn3)cc(OC)c12", "Fibroblast growth factor receptor 2 (Homo sapiens)", "Fulfilled"],
  ["COc1cc2c(NC3CCN(CC4CCCCC4)CC3)nc(N3CCCN(C(C)C)CC3)nc2cc1OCCCN1CCCCC1", "Fibroblast growth factor receptor 2 (Homo sapiens)", "Not fulfilled"],
  ["O=c1[nH]c(N2CCC3(CC2)CN(CCO)c2cc(F)cc(F)c23)nc2c1CCCC2", "Fibroblast growth factor receptor 2 (Homo sapiens)", "Fulfilled"],
  ["Cc1sc2c(c1C)C(c1ccc(Cl)cc1)=N[C@@H](CC(=O)OC(C)(C)C)c1nnc(C)n1-2", "Fibroblast growth factor receptor 2 (Homo sapiens)", "Not fulfilled"],
  ["C[C@]12CCCN1CC1=NNC(=O)c3cc(F)cc4[nH]c2c1c34", "Fibroblast growth factor receptor 2 (Homo sapiens)", "Not fulfilled"],
  ["CCCCCCCCCCCCCCCCNNC(=O)c1cccs1", "Fibroblast growth factor receptor 2 (Homo sapiens)", "Not fulfilled"],
  ["NCCCOc1cc2ccccc2cc1C(=O)NCCOc1cc2ccccc2cc1C(=O)Nc1ccc(Cl)cc1O", "Fibroblast growth factor receptor 2 (Homo sapiens)", "Fulfilled"],
  ["CC(=O)N[C@H](C(=O)N[C@@H](CC(=O)O)C(=O)N[C@H](C(=O)N[C@@H](C)C(=O)N[C@H](C=O)CC(=O)O)C(C)C)C(C)C (Ac-VDVAD-aldehyde)", "Fibroblast growth factor receptor 2 (Homo sapiens)", "Fulfilled"],
  ["Cc1cc(-c2ccc3nc(C4CCOCC4)n(CCOC(F)(F)F)c3c2)cn(C)c1=O", "Fibroblast growth factor receptor 2 (Homo sapiens)", "Not fulfilled"]
]}

From here, focus on the item given below.
INPUT: I wonder whether `O=C(N(CCc1ccccc1)C1CCCCC1)n1ncc(-c2ccc(OC(F)(F)F)cc2)n1` has ΔTm below 0.3 °C. Can you tell?
OUTPUT: Fulfilled
